System: PANC-1
Assay: cells
Settings: Homo sapiens, PANC-1, 48 h
Description: Antiproliferative activity against human PANC-1 cells assessed as inhibition of cell growth incubated for 48 hrs by propidium iodide staining based fluorometer assay
measured_attribute: IC50
Please report the result as a number followed by the unit.

Worked examples follow.
molecule	measured_attribute	result_value
COc1cc(/C=C2\CCc3ccccc3C2=O)c(Br)c(OC)c1OC	IC50	21.3 µM
CCN(CC)CCON=C1/C(=C/c2cc(OC)c(OC)c(OC)c2Br)CN(C)C/C1=C\c1cc(OC)c(OC)c(OC)c1Br	IC50	0.09 µM
COc1cc(/C=C2\CCc3ccc(F)cc3C2=O)c(Br)c(OC)c1OC	IC50	8.5 µM
COc1cc(/C=C2\CCc3c(O)cccc3\C2=N\O)c(Br)c(OC)c1OC	IC50	1.5 µM
COc1ccc(/C=C2\CC(C)C/C(=C\c3ccc(OC)c(OC)c3Cl)C2=O)c(Cl)c1OC (stereo not given)	IC50	3.2 µM

Now consider the entry below.
What does the record list as IC50 for COc1cccc(/C=C2\COC/C(=C\c3cccc(OC)c3Cl)C2=O)c1Cl ?
8.9 µM

----------
System: MIA PaCa-2
Experiment: Antiproliferative activity against human MIA PaCa-2 cells assessed as inhibition of cell growth incubated for 48 hrs by propidium iodide staining based fluorometer assay
Format: functional
Details: MIA PaCa-2, 48 h
measured_attribute: IC50 (µM)
State the answer as a number, implicitly in µM.

Worked examples follow.
compound	system_tested	result_value
COc1ccc(/C=C2\CCc3ccc(Br)cc3C2=O)c(Cl)c1OC	MIA PaCa-2	10.6
COc1cc(/C=C2\CCc3ccc(Br)cc3C2=O)c(Br)c(OC)c1OC	MIA PaCa-2	9
COc1cc2c(cc1OC)C(=O)/C(=C/c1cc(OC)c(OC)c(OC)c1Br)CC2	MIA PaCa-2	2.4
COc1cccc(/C=C2\CC(C(C)C)C/C(=C\c3cccc(OC)c3Cl)C2=O)c1Cl (stereo not given)	MIA PaCa-2	16.7

Now consider the entry below.
What does the record list as IC50 for COc1ccc(/C=C2\CNC/C(=C\c3ccc(OC)c(OC)c3Cl)C2=O)c(Cl)c1OC ?
6.2

----------
Tested on: NCI-H460
Experiment: cells
Details: Homo sapiens, NCI-H460, 48 h
Description: Antiproliferative activity against human NCI-H460 cells assessed as inhibition of cell growth incubated for 48 hrs by propidium iodide staining based fluorometer assay
measured_attribute: pIC50
The meaning of pIC50 here: minus log10 of the concentration in molar units.

Worked examples follow.
compound	result_value
COc1ccc(/C=C2\CCC/C(=C\c3ccc(OC)c(OC)c3Cl)C2=O)c(Cl)c1OC	5.39
COc1ccc(OC)c2c1CCC(=C\c1cc(OC)c(OC)c(OC)c1Br)/C2=N\O	6.22
COc1cc(/C=C2\CCc3ccc(Br)cc3C2=O)c(Br)c(OC)c1OC	4.96
COc1ccc(/C=C2\CC(C)C/C(=C\c3ccc(OC)c(OC)c3Cl)C2=O)c(Cl)c1OC (centres undefined)	5.54
COc1cc(/C=C2\CCc3ccccc3C2=O)c(Br)c(OC)c1OC	4.65
COc1cc2c(cc1OC)C(=O)/C(=C/c1ccc(OC)c(OC)c1Cl)CC2	5.24
COc1ccc(/C=C2\COC/C(=C\c3ccc(OC)c(OC)c3Cl)C2=O)c(Cl)c1OC	5.28
COc1ccc(/C=C2\CN(Cc3ccccc3)C/C(=C\c3ccc(OC)c(OC)c3Cl)C2=O)c(Cl)c1OC	4.86

Now consider the entry below.
What does the record list as pIC50 for COc1cc(/C=C2\COC/C(=C\c3cc(OC)c(OC)c(OC)c3Br)C2=O)c(Br)c(OC)c1OC ?
5.30
